These measurements were taken from ChEMBL document CHEMBL1129476.

Test: log 1/LD50 for LD50 (mmol/kg)
Format: ADME
OBSERVED PROPERTY: Log 1/LD50 (mM kg-1)
Give your answer as a number; write no unit.

QUERY: // Log 1/LD50 (mM kg-1) lookup, key: CC1CN1C1=C(F)C(=O)C(N2CC2C)=C(F)C1=O (stereo unspecified)
RESULT: 1.5

QUERY: Repeat for the following compound: `NC(=O)OCCC1=C(N2CC2)C(=O)C(Br)=C(N2CC2)C1=O`
RESULT: 1.05

QUERY: Repeat for the following compound: CC1=C(N2C(C)C2C)C(=O)C(Br)=C(N2C(C)C2C)C1=O (stereo unspecified)
RESULT: 0.63

QUERY: Repeat for the following compound: `CCC1=C(N2CC2)C(=O)C(Br)=C(N2CC2)C1=O`
RESULT: 1.39

QUERY: Repeat for the following compound: `CC1=C(N2CC2)C(=O)C(CCOC(N)=O)=C(N2CC2)C1=O`
RESULT: 1.99

QUERY: Repeat for the following compound: `O=C1C=C(N2CC2)C(=O)C=C1N1CC1`
RESULT: 1.8

QUERY: Repeat for the following compound: CC1CN1C1=CC(=O)C(N2CC2C)=CC1=O (stereo unspecified)
RESULT: 1.16

QUERY: Repeat for the following compound: CC1CN1C1=C(F)C(=O)C(N2CC2C)=C(N2CC2C)C1=O (stereo unspecified)
RESULT: 1.45

QUERY: Repeat for the following compound: `CCC1=C(N2CC2)C(=O)C(C)=C(N2CC2)C1=O`
RESULT: 1.46

QUERY: Repeat for the following compound: `CCOC(=O)NC1=C(N2CC2)C(=O)C(NC(=O)OCC)=C(N2CC2)C1=O`
RESULT: 1.54

QUERY: Repeat for the following compound: CC1=C(N2CC2C)C(=O)C(Br)=C(N2CC2C)C1=O (stereo unspecified)
RESULT: 1.59
